src = the DeepSol protein solubility set

- assay_summary: soluble on expression in E. coli; label from the status in PepcDB or PDB records
test_readout: soluble on expression in E. coli

Known results for sequences:
{"columns": ["seq_text", "soluble on expression in E. coli"],
 "data": [
  ["MTIYVVTPTYARLVQKAELVRLSQTLSLVPRLHWLLVEDAEGPTPLVSGLLAASGLLFTHLVVLTPKAQRLREGEPGWVHPRGVEQRNKALDWLRGRGGAVGGEKDPPPPGTQGVVYFADDDNTYSRELFEEMRWTRGVSVWPVGLVGGLRFEGPQVQDGRVVGFHTAWEPSRPFPVDMAGFAVALPLLLDKPNAQFDSTAPRGHLESSLLSHLVDPKDLEPRAANCTRVLVWHTRTEKPKMKQEEQLQRQGRGSDPAIEV", "soluble"],
  ["MSLASRQAIGFIAPSLAGEFMTGVMEGILQSLRKHQYDLIAVQGAPQHLINNQLAKQHIKAWIVIIDPTGLNELATNMPAVVISAPNAGERFPLVMPDNNQSARAMVEHLIEHGHSKIAFVGNFNNSDMRDRYTVYCDVLNEHSITPNPAWVVDVGDYTEGRTEHAFYPLIANGLNFSAVVAANDQQAVGVMMALETKGYRVPHDMAVVGFDDATIAQHANPPLTTVRQQPQLLGSIAADTVIELIAGKPVSNAPIYVPTIPIWRQSCGCKDVYTGIKEGHHHHHH", "not soluble"],
  ["MGSSHHHHHHSSGLVPRGSHMMEVGFLGLGIMGKAMSMNLLKNGFKVTVWNRTLSKCDELVEHGASVCESPAEVIKKCKYTIAMLSDPCAALSVVFDKGGVLEQICEGKGYIDMSTVDAETSLKINEAITGKGGRFVEGPVSGSKKPAEDGQLIILAAGDKALFEESIPAFDVLGKRSFYLGQVGNGAKMKLIVNMIMGSMMNAFSEGLVLADKSGLSSDTLLDILDLGAMTNPMFKGKGPSMNKSSYPPAFPLKHQQKDMRLALALGDENAVSMPVAAAANEAFKKARSLGLGDLDFSAVIEAVKFSRE", "soluble"],
  ["MGSDKIHHHHHHMSLEATDSKAMVLLMGVRRCGKSSICKVVFHNMQPLDTLYLESTSNPSLEHFSTLIDLAVMELPGQLNYFEPSYDSERLFKSVGALVYVIDSQDEYINAITNLAMIIEYAYKVNPSINIEVLIHKVDGLSEDFKVDAQRDIMQRTGEELLELGLDGVQVSFYLTSIFDHSIYEAFSRIVQKLIPELSFLENMLDNLIQHSKIEKAFLFDVNSKIYVSTDSNPVDIQMYEVCSEFIDVTIDLFDLYKAPVLRNSQKSSDKDNVINPRNELQNVSQLANGVIIYLRQMIRGLALVAIIRPNGTDMESCLTVADYNIDIFKKGLEDIWANARASQAKNSIEDDV", "not soluble"],
  ["MSLTSEEERAEQAMAAISQIEPTRRLFVWTLTHGIVEYGSARAPAQHNTVSPQAAIEWVVRRGEPGIFIFKDLHPFIDLAPVKRWLRDAVAGFKGTDKVLVLMSPIQQIPTELEKEVVVVEFPLPGPGELNELLNVHLSQAPDKLRILSDAGREKMVKAALGLTKDEADKVYRKAEVVSGRLTEAEVDIVLSEKKQIIKRNGILEYLEFDDEGHHHHHH", "not soluble"],
  ["MGSDKIHHHHHHMSKSLFPFRFLLPVPVDHYENFPVASWLLPGRLREPVSAIYRFARSADDLADEGDAPPRARLQELARYHSELDRIERGEIPDDPIFGRLAAAIRAHALPLTPFRDLLSAFAQDIEKTRYASFGEVMDYCRRSANPVGRLMLHLYGDHDPRHQAYSDAICSSLQLINFLQDVAIDYAKGRIYLPQDELAAHHVSEAQIAAGDAGGLWRMMMHKQIERARKLLQAGAPLGRALDGRIGLELRVTIRGGETILRKLHADPGCVFGARPVLGKRDWIVMLARSVL", "not soluble"]
]}

Enquiry: Reported soluble on expression in E. coli for MNRSRLLLLGAEAVAQGAIDAGLSGVYAYPGTPSTEITEYIQRSAPARQSGIRSAWSANEKTAYEAALGMSYAGKRSLVCMKHVGLNVAADAFMNSAITGVNGGLVLAVADDPSMHSSQNEQDSRVYGRFAMVPVLEPASQQELYDAMFHAFELSEAVRLPVIMRMTTRLSHSRAGVELKASLEQNPLSAE : what is it?
Return: not soluble

Enquiry: Entry under review: MGSDKIHHHHHHLSSPMRLSFLAAAFAAPLVVSASGAGAAEPTRYPLTLQTCGQTITFDRAPSRVVSIGQSSTEILYLLGLADKVVGTALWVGPVIAGYEAVDAKVPRLADNDPSFESVVGKKPDLVTNQYQWQVGPKGVVATNAQFAELKIPVYTSPADCVGKDNSEGGDGLRTSRFTTDLIYQEIEDLARIFDVSERGEVLINDLKAREAAAKKKIASLRSPVSAVFWFSSADLDIDPYVAGSDGAPGYILSVLGITNVIKSEEEWPTVGWETIAKANPTIIVAGEMTRRRFPVDDIAVKKTFLANDPVTRLMPAVQEGRIVPLDAQAMNPTIRTIEGIEVVADAVIKAGLAQ . Reported soluble on expression in E. coli?
Return: not soluble

Enquiry: I would be grateful if you could share the reported soluble on expression in E. coli for MDRRSQILTIAGHLFSQRGYHATSMRELARHLNLQGGSLYAHIQSKEELLLEVVRQAAERFQKVLEELPSGDPVTRMKALVKGHLRVIAEELPRATVFFHEWKHLSPPLLEEAKALRRRYEEGVQAVVEEGVRAGVFRVENVRLATLFVLSALNWTYQWYRPDGPLSLEALAEAYAELVLKALGVAASPEGERREEGGEDGEA .
Return: soluble

Enquiry: Bench note: what soluble on expression in E. coli did MTKKVGIVDTTFARVDMASIAIKKLKELSPNIKIIRKTVPGIKDLPVACKKLLEEEGCDIVMALGMPGKAEKDKVCAHEASLGLMLAQLMTNKHIIEVFVHEDEAKDDKELDWLAKRRAEEHAENVYYLLFKPEYLTRMAGKGLRQGFEDAGPARE show?
Return: soluble

Enquiry: Fill blank: measured soluble on expression in E. coli of the sequence MENVSDDRFAEMVWEAVSGGATLKDVHGIPQDMMEGLYAHAYDFYHKGRLDEAETFFRFLCIYDFYNPDYIMGLAAVCQLKKQFQKAVDLYAVAFALSKNDYRPVFFTGQCQLFMRKAAKARQCFELVCEQSGLEHHHHHH is ____.
Return: not soluble

Enquiry: Which soluble on expression in E. coli is reported for this sequence? MRYGEKEIKEFDVENMEIWPNDAKNDYIIKITLPEFMCCCPRSGYPDFATIYLEYMPDKFVVELKAIKLYINTFMYRNVSHEASINEIYNTLKDKLKPKWIKVVGDFNPRGNVHTVIECRSDMVVPK
Return: not soluble

---

- assay_summary: soluble on expression in E. coli; label from the status in PepcDB or PDB records
test_readout: soluble on expression in E. coli

{"columns": ["seq_text", "test_readout", "obs_value"],
 "data": [
  ["MSLSITHQPANLTLAQIQQMIGGVMLLSQHSPLHRRYVVAEWLQRILPAFELNQFCYYEDEHGRPIAFCNWAFVSEQIRDELLSGVREISPSDWRSGQQIYIPEMIAPFGHGREVVNDLRRRVFLPWQGQKVCTVRGKVDAQNDRCIRKVQWFSIEGHHHHHH", "soluble on expression in E. coli", "soluble"],
  ["MGTASYPDPEIRALAEKITANATSDLEKVKAIESYLKNNYINTYVERTDVKEFLFKTKRGTAREFATAFVLLAQSIGIPARAVFGYLADPVETNQTIFASDAYVWAEVRFKEGWMEFDPAPEGRG", "soluble on expression in E. coli", "soluble"],
  ["MGSDKIHHHHHHMIDAFVRIGPLMDPASYPQWAQQLIEDCRESKRRVVEHEFYARLRDGQLKQSTIRQYLIGGWPVVEQFSLYMAHNLTKTRYGRHQGEDMARRWLMRNIRVELNHADYWVNWCQAHGVHLHELQAQEVPPELNGLNDWCWRVCATENLAISMAATNYAIEGATGEWSAVVCSTDTYAQGFPEEGRKRAMKWLKMHAQYDDAHPWEALEIICTLAGENPTLGLRTELRRAICKSYDCMFLFLERCMQLEGRQQGRMRPALAAG", "soluble on expression in E. coli", "not soluble"],
  ["MTTERVLQYPNLLKIVPYLSYSKRMELSKVSPEFRSIHSRLDYSLKTMSFSQDYGAISEEGPIEVGSGILKVESIEYIFEYDENMDQVKIKCLLAPELVRFSNDKSIIRRYFHYYLAASQRIVQHVKLRESDSPFRNLQSLKIPSISWTLNGAREYPQFINFQNHVFEKLELINYESIVLTETQVKSCKHLVLKKETIYQEYTVGNENSAIRNFYCILSNMKLELVLGLNYVESFILLCNRLLLDTLHIGSSVTAIFIKEPLLNVWRTLLERYEDSRGTFMGSGHRKCAILSTDNNIKVAVFENYFGKDSNGKESFTAIKMNNNVEFDA", "soluble on expression in E. coli", "not soluble"],
  ["MNFVQPIRDPEQIQQLKDYFKEKSLRNYILFIMGINTGLRISDILKLKVGDVKGSHISMREEKTGKQKRIQITAALKRELKWFIEEREDNEYLLQSRQGRNRPIGRSMAYKILSGAAADFGLDEIGTHTLRKTYGYHMYMQTKNIALLMEIFNHSSEKVTLRYIGVNQDAMDKAMTRFKI", "soluble on expression in E. coli", "not soluble"],
  ["MKIDITDYNHADEILNPQLWKEIEETLLKMPLHVKASDQASKVGSLIFDPVGTNQYIKDELVPKHWKNNIPIPKRFDFLGTDIDFGKRDTLVEVQFSNYPFLLNNTVRSELFHKSNMDIDEEGMKVAIIITKGHMFPASNSSLYYEQAQNQLNSLAEYNVFDVPIRLVGLIEDFETDIDIVSTTYADKRYSRTITKRDTVKGKVIDTNTPNTRRRKRGTIVTY", "soluble on expression in E. coli", "soluble"]
]}

Now examine the next entry.
Enquiry: // query soluble on expression in E. coli value for entry MEKHPGKLFYRLSRLAPGDALPLKRGPKAKVYANPLETQALPPFRQDGGPPLFRAMAHLRPLLPEVGASLTLKDLSQVLYPLAEREGRRGFPSAGEAYPLEAYLVVRRVEGVFPGVYHYFPREHQLFQIASKVEEAAWAEALMGVALDRAAVLLVLTLLPERSEALFGLRGYRYALLEAGYAAGLVLLAAVGQGLAAYPAETFHDEGVARLLGLPEGEYPGVVVVLGR
Return: soluble
